# Species: Homo sapiens
# experiment: Selectivity index, ratio of IC50 for human serum BuChE to IC50 for human erythrocytes AChE
endpoint: Ratio IC50

chemical structure: CCN(CC)CCCCCCOc1ccc(/C=C2\COc3ccccc3C2=O)cc1
endpoint: Ratio IC50
reading: 2.3
--
chemical structure: CN(C)CCCOc1cccc(/C=C2\COc3ccccc3C2=O)c1
endpoint: Ratio IC50
reading: 1.53
--
chemical structure: CN(C)CCOc1ccc(/C=C2\COc3ccccc3C2=O)cc1
endpoint: Ratio IC50
reading: 14.2
--
chemical structure: CCN(CC)CCCCOc1ccc(/C=C2\COc3ccccc3C2=O)cc1
endpoint: Ratio IC50
reading: 0.801

====

# experiment: Effective permeability of the compound at 0.1 mg/ml after 16 hrs by PAMPA
# Assay type: ADME
# test parameters: read-out: Peff
endpoint: Papp at 16 h, 0.1 mg/ml (×10⁻⁶ cm/s)

chemical structure: CN(C)CCOc1ccc(/C=C2\COc3ccccc3C2=O)cc1
endpoint: Papp at 16 h, 0.1 mg/ml
unit string: ×10⁻⁶ cm/s
reading: 10.6

====

# system name: Amine oxidase [flavin-containing] B (Homo sapiens, UniProt P27338)
# Sequence (P27338 whole entry): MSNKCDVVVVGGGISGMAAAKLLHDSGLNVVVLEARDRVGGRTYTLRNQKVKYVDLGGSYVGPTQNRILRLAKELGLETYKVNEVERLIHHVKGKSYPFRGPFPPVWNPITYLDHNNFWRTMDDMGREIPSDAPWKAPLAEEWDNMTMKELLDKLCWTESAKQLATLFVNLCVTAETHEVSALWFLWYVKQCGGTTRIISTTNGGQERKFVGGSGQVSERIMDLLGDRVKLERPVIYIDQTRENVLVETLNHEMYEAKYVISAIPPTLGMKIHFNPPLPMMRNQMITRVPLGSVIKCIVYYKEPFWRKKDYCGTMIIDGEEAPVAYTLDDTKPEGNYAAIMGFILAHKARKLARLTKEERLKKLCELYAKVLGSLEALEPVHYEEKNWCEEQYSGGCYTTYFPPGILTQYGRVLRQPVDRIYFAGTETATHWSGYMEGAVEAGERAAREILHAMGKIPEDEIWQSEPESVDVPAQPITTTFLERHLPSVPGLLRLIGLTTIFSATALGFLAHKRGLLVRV
# experiment: Inhibition of recombinant human MAO-B assessed as reduction in H2O2 production using p-tyramine as substrate preincubated for 15 mins followed by substrate addition by Amplex red reagent based fluorescence assay
Response field label: string, one of rule met (IC50 strictly below 20 µM) or rule not met.

chemical structure: CN(C)CCCCCCOc1ccc(/C=C2\COc3ccccc3C2=O)cc1
system name: Amine oxidase [flavin-containing] B (Homo sapiens, UniProt P27338)
group: rule met
--
chemical structure: CCN(CC)CCCOc1ccc(/C=C2\COc3ccccc3C2=O)cc1
system name: Amine oxidase [flavin-containing] B (Homo sapiens, UniProt P27338)
group: rule met
--
chemical structure: O=C1/C(=C/c2ccc(OCCCCCCN3CCN(Cc4ccccc4)CC3)cc2)COc2ccccc21
system name: Amine oxidase [flavin-containing] B (Homo sapiens, UniProt P27338)
group: rule not met
--
chemical structure: CCN(CC)CCCOc1cccc(/C=C2\COc3ccccc3C2=O)c1
system name: Amine oxidase [flavin-containing] B (Homo sapiens, UniProt P27338)
group: rule met
--
chemical structure: CN(CCCCCCOc1ccc(/C=C2\COc3ccccc3C2=O)cc1)Cc1ccccc1
system name: Amine oxidase [flavin-containing] B (Homo sapiens, UniProt P27338)
group: rule not met
--
chemical structure: CCN(CCOc1ccc(/C=C2\COc3ccccc3C2=O)cc1)Cc1ccccc1
system name: Amine oxidase [flavin-containing] B (Homo sapiens, UniProt P27338)
group: rule met
--
chemical structure: O=C1/C(=C/c2ccc(OCCN3CCN(Cc4ccccc4)CC3)cc2)COc2ccccc21
system name: Amine oxidase [flavin-containing] B (Homo sapiens, UniProt P27338)
group: rule not met
--
chemical structure: CN1CCN(CCCOc2ccc(/C=C3\COc4ccccc4C3=O)cc2)CC1
system name: Amine oxidase [flavin-containing] B (Homo sapiens, UniProt P27338)
group: rule not met
--
chemical structure: CCN(CC)CCOc1ccccc1/C=C1\COc2ccccc2C1=O
system name: Amine oxidase [flavin-containing] B (Homo sapiens, UniProt P27338)
group: rule not met
--
chemical structure: CN1CCN(CCCCCCOc2ccc(/C=C3\COc4ccccc4C3=O)cc2)CC1
system name: Amine oxidase [flavin-containing] B (Homo sapiens, UniProt P27338)
group: rule met
